- systemName: UniProt:O43614
- Sequence (O43614 whole entry): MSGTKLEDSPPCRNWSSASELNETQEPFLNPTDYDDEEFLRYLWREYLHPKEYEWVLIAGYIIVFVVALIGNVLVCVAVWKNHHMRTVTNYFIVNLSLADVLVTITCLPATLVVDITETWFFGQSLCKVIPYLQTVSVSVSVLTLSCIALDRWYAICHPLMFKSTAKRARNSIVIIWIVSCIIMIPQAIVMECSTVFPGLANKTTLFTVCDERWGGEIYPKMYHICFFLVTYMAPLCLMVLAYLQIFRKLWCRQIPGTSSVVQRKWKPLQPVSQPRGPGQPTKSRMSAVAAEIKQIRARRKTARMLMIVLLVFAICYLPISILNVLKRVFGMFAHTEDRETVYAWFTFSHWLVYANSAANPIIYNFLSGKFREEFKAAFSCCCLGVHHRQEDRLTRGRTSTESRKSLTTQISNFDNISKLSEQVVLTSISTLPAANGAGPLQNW
- assayOverview: Calcium Accumulation in Cells (FLIPR), antagonism of orexin A
- Type: cell-based
- setupConditions: measured at a concentration of 10 μM of compound; read-out: FLIPR hOx2R % inhibition value
observedProperty: inhibition at 10 µM (%)
Give just the number in %; leave the unit off.

Below: 5 molecules and their reported inhibition at 10 µM.
                                   molecule  measurement
0  Cc1cccc(CNC(=O)COc2cc(C(F)(F)F)c3c(-c4ccccc4)nn(C)c3n2)c1           41
1  Cc1cc(OCC(=O)NCc2ccccc2Cl)nc2c1c(-c1ccccc1)nn2C           33
2  Cc1cccnc1CNC(=O)COc1cc(C)c2c(C3CC3)nn(C)c2n1           11
3  COc1ccc([C@H](C)NC(=O)COc2nc3c(c(C4CC4)nn3C)c(C)c2C)cc1           38
4  Cc1cc(OCC(=O)NCc2ccc3c(c2)OCO3)nc2c1c(-c1ccccc1)nn2C           39

q: Annotate the molecule "Cc1cc(OCC(=O)NCCCn2ccnc2)nc2c1c(C1CC1)nn2C" with its measured inhibition at 10 µM.
a: 16

q: Output measured inhibition at 10 µM for this item: "C[C@@H](NC(=O)COc1cc(C(F)(F)F)c2c(-c3ccccc3)nn(C)c2n1)c1ccccc1"
a: 35

q: Write down inhibition at 10 µM measured for item "Cc1cnc(CNC(=O)COc2cc(C)c3c(C4CC4)nn(C)c3n2)cn1"
a: 15

###

- systemName: human orexin 1 receptors (Homo sapiens (Human))
- assayOverview: Radioligand Binding Assay I ([125I]orexin A competition, cell membranes)
- setupConditions: read-out: binding I hOx1R Kd
observedProperty: Kd (nM)
Answer with a number only, understood to be in nM.

>>> df
                                   compound  observedproperty  measurement
0  COc1ccc(-c2nn(C)c3nc(OCC(=O)N[C@@H](C)c4ccccc4)cc(C(F)(F)F)c23)cc1 [Example 1.20]                Kd          299
1  Cc1ccc(C(C)NC(=O)COc2cc(C(F)(F)F)c3c(-c4ccccc4)nn(C)c3n2)cn1 (centres unmarked) [Example 1.77]                Kd          161
2  CC(NC(=O)COc1cc(C(F)(F)F)c2c(-c3ccccc3)nn(C)c2n1)c1ccccc1 (centres unmarked) [Example 1.18]                Kd           36
3  COc1ccc([C@H](C)NC(=O)COc2cc(C)c3c(C4CC4)nn(C)c3n2)cc1 [Example 1.71]                Kd          105
4  C[C@H](NC(=O)COc1cc(C(F)(F)F)c2c(-c3ccccc3)cn(C)c2n1)c1ccccc1 [Example 6.77]                Kd          501
5  Cc1cc(OCC(=O)N[C@@H](C)c2ccccc2)nc2c1c(-c1ccccc1)nn2C [Example 1.13]                Kd           45

q: Fetch value of Kd on human orexin 1 receptors (Homo sapiens (Human)) for C[C@H](NC(=O)COc1cc(C(F)(F)F)c2c(-c3ccccc3)nn(C)c2n1)c1ccccc1 [Example 1.17] .
a: 64

q: # return Kd for C[C@H](NC(=O)COc1cc(C(F)(F)F)c2c(-c3cccc(F)c3)nn(C)c2n1)c1ccccc1 [Example 1.22] , test system: human orexin 1 receptors (Homo sapiens (Human))
a: 88

###

- systemName: UniProt:O43614
- assayOverview: Calcium Accumulation in Cells (FLIPR), antagonism of orexin A
- setupConditions: antagonism of orexin A, Cheng-Prusoff corrected; read-out: FLIPR hOx2R Ki
Sorting guide: entries reporting Ki beneath 80 nM go in the met pile, the rest go in the not met pile.

For orientation, consider the following solved cases.
In [3]: df
Out[3]:
                                   compound      systemname  answerlabel
0  Cc1ccc2c(n1)CCC2NC(=O)COc1cc(C)c2c(C3CC3)nn(C)c2n1 (stereo not shown) [Example 6.61]  UniProt:O43614      not met
1  Cn1nc(-c2ccccc2)c2c(C(F)(F)F)cc(OCC(=O)NCc3cccc(Cl)c3)nc21 [Example 1.43]  UniProt:O43614      not met
2  Cc1ccc(C(C)NC(=O)COc2cc(C(F)(F)F)c3c(C4CC4)nn(C)c3n2)cn1 (stereo not shown) [Example 6.16]  UniProt:O43614      not met
3  COc1ccc([C@H](C)NC(=O)COc2cc(C)c3c(-c4ccoc4C)nn(C)c3n2)cc1 [Example 6.34]  UniProt:O43614      not met
4  COc1ccc2c(c1)CC[C@@H]2NC(=O)C(C)Oc1cc(C)c2c(C3CC3)nn(C)c2n1 (single isomer, unassigned) [Example 6.71]  UniProt:O43614          met

q: Problem: For the compound C[C@H](NC(=O)COc1cc(C(F)(F)F)c2c(C3CCCC3)nn(C)c2n1)c1ccccc1 [Example 1.52] , is Ki under 80 nM?
a: not met

q: Below 80 nM on Ki? Entry C[C@H](NC(=O)COc1cc(C(F)(F)F)c2c(C(C)(C)C)nn(C)c2n1)c1ccccc1 [Example 1.37]
a: not met

q: Hello, is Ki of the following compound strictly smaller than 80 nM? COc1ccc([C@H](C)NC(=O)COc2cc(C(F)F)c3c(-c4cc(C)oc4C)nn(C)c3n2)cc1 [Example 6.39]
a: met

q: Is Ki of COc1ccccc1-c1nn(C)c2nc(OCC(=O)N[C@@H](C)c3ccccc3)cc(C(F)(F)F)c12 [Example 1.49] strictly below 80 nM?
a: not met

q: Check if Ki falls below 80 nM for Cc1cc(-c2nn(C)c3nc(OCC(=O)NC(C)c4c(C)nn(C)c4C)cc(C)c23)c(C)o1 (stereo not shown) [Example 6.33] .
a: not met

q: Bench note: check whether Cc1ccc([C@H](C)NC(=O)COc2ccc3c(C(C)(C)C)nn(C)c3n2)cc1 [Example 6.25] shows Ki below 80 nM
a: met

q: Is Ki strictly under 80 nM for the entry Cc1cc(OCC(=O)NC(C)c2nc3ccccc3s2)nc2c1c(C1CC1)nn2C (stereo not shown) [Example 7.23] ?
a: not met

q: API: query returns whether the compound falls strictly under 80 nM in Ki. Query: C[C@H](NC(=O)COc1ccc2c(-c3ccccc3)nn(C)c2n1)c1ccccc1 [Example 2.1]
a: not met

###

- systemName: human orexin 1 receptors (Homo sapiens (Human), UniProt O43613)
- Sequence (O43613 whole entry): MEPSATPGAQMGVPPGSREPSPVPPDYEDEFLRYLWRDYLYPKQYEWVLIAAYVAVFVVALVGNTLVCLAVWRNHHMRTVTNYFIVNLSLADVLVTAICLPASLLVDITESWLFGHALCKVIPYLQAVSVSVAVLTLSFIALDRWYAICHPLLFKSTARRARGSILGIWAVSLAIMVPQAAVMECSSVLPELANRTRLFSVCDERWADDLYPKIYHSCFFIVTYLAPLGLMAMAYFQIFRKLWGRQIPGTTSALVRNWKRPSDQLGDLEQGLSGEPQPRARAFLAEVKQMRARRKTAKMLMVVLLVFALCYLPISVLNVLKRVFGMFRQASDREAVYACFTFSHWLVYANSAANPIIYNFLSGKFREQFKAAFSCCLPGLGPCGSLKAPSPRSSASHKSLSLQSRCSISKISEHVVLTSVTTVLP
- assayOverview: Radioligand Binding Assay II ([3H]-SB649868 competition, cell membranes)
- setupConditions: read-out: binding II hOx1R Kd
Bucketed by reported Kd, buckets being low: < 20 nM; mid: ≥ 20 nM and < 70 nM; high: ≥ 70 nM

>>> df
                                   molecule  answerlabel
0  COc1ccc(C(C)NC(=O)COc2cc(C(F)(F)F)c3c(C4CC4)nn(C)c3n2)cn1 (stereo not shown)         high
1  Cc1ccc([C@H](C)NC(=O)COc2ccc3c(C(C)(C)C)nn(C)c3n2)cc1         high
2  Cc1ccc([C@H](C)NC(=O)COc2cc(C)c3c(-c4ncc(C)s4)nn(C)c3n2)cc1          low
3  Cc1cc(-c2nn(C)c3nc(OCC(=O)NC(C)c4c(C)nn(C)c4C)cc(C)c23)c(C)o1 (stereo not shown)          low
4  Cc1ccc([C@H](C)NC(=O)COc2cc(C)c3c(-c4ccc(C)cn4)nn(C)c3n2)cc1          low
5  COc1ccc2c(c1)CCC2NC(=O)COc1cc(C)c2c(C3CC3)nn(C)c2n1 (stereo not shown)         high

q: Which category fits this record: "Cc1ccc([C@H](C)NC(=O)COc2cc(C)c3c(C(C)C)nn(C)c3n2)cc1"
a: high

q: Bin? "COc1ccnc(-c2nn(C)c3nc(OCC(=O)N[C@@H](C)c4ccc(C)cc4)cc(C)c23)c1"
a: low

q: Any idea which band "COc1ccc([C@H](C)NC(=O)COc2cc(C(F)(F)F)c3c(C4CC4)nn(C)c3n2)cc1" is in?
a: high

q: Any idea which band "Cc1ccc2c(c1)CC[C@@H]2NC(=O)COc1cc(C)c2c(C3CC3)nn(C)c2n1" is in?
a: mid

q: Which class does Cc1cc(OCC(=O)NC(C)c2cnc3[nH]ccc3c2)nc2c1c(C1CC1)nn2C (stereo not shown) fall in?
a: high

###

- systemName: UniProt:O43614
- assayOverview: Calcium Accumulation in Cells (FLIPR), antagonism of orexin A
- setupConditions: antagonism of orexin A, Cheng-Prusoff corrected; read-out: FLIPR hOx2R Ki
pKi: −log10 of the molar value.
# label = 1 if pKi >= 7 else 0

// known answers, use as guide
>>> print(df.to_string())
                                   molecule  answerlabel
0  Cc1ccc([C@H](C)NC(=O)COc2cc(C)c3c(-c4cn(C)cn4)nn(C)c3n2)cc1            0
1  CC(NC(=O)COc1cc(C(F)(F)F)c2c(-c3ccccc3)nn(C)c2n1)c1ccccc1 (centres unmarked)            1
2  COc1ccc(C(C)NC(=O)COc2cc(C(F)(F)F)c3c(-c4ccccc4)nn(C)c3n2)cn1 (centres unmarked)            1

q: Form field: pKi at least 7? Entry: "C[C@H](NC(=O)COc1cc(C(F)(F)F)c2c(-c3cccc(Br)c3)nn(C)c2n1)c1ccccc1"
a: 0

q: Could you verify whether the entry "COc1cncc(-c2nn(C)c3nc(OCC(=O)N[C@@H](C)c4ccc(C)cc4)cc(C)c23)n1" shows pKi of no less than 7?
a: 0

q: Is it the case that "Cn1nc(-c2ccccc2)c2c(C(F)(F)F)cc(OCC(=O)NC3CCCCC3)nc21" has pKi reaching or exceeding 7?
a: 0
